Just for reference, ChEMBL document CHEMBL3608281 is where these values come from.

IC50 listing for selected compounds.
# Test name: Cytotoxicity against human Hep3B cells incubated for 48 hrs by MTT assay
# Format: functional, cell-based, Hep 3B2
Quantity measured: IC50 (µM)

INSERT INTO assay_data (query_smiles, quantity_measured, output_unit, censoring_qualifier, value_observed) VALUES
  ('CCOC(=O)c1cc2c3ccccc3n(Cc3ccccc3)c2cn1', 'IC50', 'µM', '>', 100),
  ('CCOC(=O)c1cc2c3ccccc3n(Cc3ccccc3OC)c2cn1', 'IC50', 'µM', '=', 8.9),
  ('CCOC(=O)c1cc2c3ccccc3n(Cc3ccc(F)cc3)c2cn1', 'IC50', 'µM', '>', 100),
  ('CCOC(=O)c1cc2c3ccccc3n(Cc3cccnc3)c2cn1', 'IC50', 'µM', '>', 100),
  ('COc1ccccc1Cn1c2ccccc2c2cc(C(=O)O)ncc21', 'IC50', 'µM', '=', 6.7),
  ('O=C(O)c1cc2c3ccccc3n(Cc3ccccc3)c2cn1', 'IC50', 'µM', '=', 4.4);
